Histone acetyltransferase KAT2A (Homo sapiens, UniProt Q92830) pIC50, compiled from various sources.
Sequence (Q92830 whole entry): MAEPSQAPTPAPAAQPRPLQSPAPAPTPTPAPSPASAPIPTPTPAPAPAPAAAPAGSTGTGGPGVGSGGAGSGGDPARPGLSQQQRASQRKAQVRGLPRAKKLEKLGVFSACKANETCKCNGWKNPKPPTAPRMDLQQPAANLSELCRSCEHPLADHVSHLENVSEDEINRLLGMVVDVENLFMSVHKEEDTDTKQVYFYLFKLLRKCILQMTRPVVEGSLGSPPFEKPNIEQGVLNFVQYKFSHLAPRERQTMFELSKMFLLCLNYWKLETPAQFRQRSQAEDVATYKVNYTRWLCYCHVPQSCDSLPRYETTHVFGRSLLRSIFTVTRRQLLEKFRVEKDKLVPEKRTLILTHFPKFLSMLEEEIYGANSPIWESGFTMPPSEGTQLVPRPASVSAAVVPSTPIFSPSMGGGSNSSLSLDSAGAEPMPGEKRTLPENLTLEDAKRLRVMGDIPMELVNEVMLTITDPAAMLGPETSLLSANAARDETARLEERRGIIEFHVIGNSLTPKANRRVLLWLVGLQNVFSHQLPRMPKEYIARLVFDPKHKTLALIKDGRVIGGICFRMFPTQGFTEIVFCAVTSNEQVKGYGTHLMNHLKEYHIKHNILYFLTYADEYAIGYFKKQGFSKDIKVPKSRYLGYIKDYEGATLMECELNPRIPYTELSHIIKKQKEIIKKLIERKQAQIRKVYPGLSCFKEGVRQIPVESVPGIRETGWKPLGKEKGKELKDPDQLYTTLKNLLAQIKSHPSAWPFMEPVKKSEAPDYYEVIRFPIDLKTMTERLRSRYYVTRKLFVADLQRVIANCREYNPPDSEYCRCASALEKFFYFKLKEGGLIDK
pIC50: −log10 of the molar value.
Test Readout: pIC50

>  <Smi>
O=C(O)CCCCCN1C(=O)/C(=C2/C(=O)N(Cc3ccc([N+](=O)[O-])cc3)c3ccccc32)SC1=S

>  <pIC50>
4.16

$$$$
>  <Smi>
COc1ccc(CN2C(=O)/C(=C3\SC(=S)N(CCCCCC(=O)O)C3=O)c3ccccc32)cc1

>  <pIC50>
4.26

$$$$
>  <Smi>
CC1=NN(c2ccc(C(=O)O)cc2)C(=O)/C1=C\c1ccc(-c2cc(C)c(C)cc2[N+](=O)[O-])o1

>  <pIC50>
4.32

$$$$
>  <Smi>
Cc1ccc(CN2C(=O)/C(=C3\SC(=S)N(C[C@H]4CC[C@H](C(=O)O)CC4)C3=O)c3ccccc32)cc1

>  <pIC50>
4.33

$$$$

[I] COc1ccc(S(=O)(=O)ON=C2C=C(C)C(=O)C(C)=C2)cc1
[II] Cc1ccc(CN2C(=O)/C(=C3\SC(=S)N(CCCCCCCC(=O)O)C3=O)c3ccccc32)cc1
[III] O=C(O)CCCCCN1C(=O)/C(=C2/C(=O)N(Cc3ccc(F)cc3)c3ccccc32)SC1=S
## Input List items by pIC50 in falling order. Put the labels in the requested order and write them down.
## Output I, II, III
(I: 4.47, II: 4.20, III: 3.68)
